These measurements were taken from PubChem BioAssay.

# Test system: Human papillomavirus type 1a E7 protein (residues 1-88)
# protocol: HPV1a E7 small-molecule binders, primary screen, biochemical, small-molecule microarray, residues 1-88, 635 nm (AID 1129)
# experimental-setup: small-molecule microarray binding, fluorescence 635 nm; higher = more signal
attribute-measured: composite z-score
Kindly provide the number alone.

Use these answered entries as a reference point.
structure_as_smiles=COC(=O)[C@@]1(Cc2ccc(F)cc2)[C@H]2c3cc(C(=O)N4CCCC4)n(CCc4c[nH]c5ccccc45)c3C[C@H]2CN1C(=O)c1ccccc1 result_number=1.26
structure_as_smiles=CC(C)NC(=O)[C@@]1(c2ccc([N+](=O)[O-])cc2)CC(=O)N(C2CCCCC2)[C@@H]1c1ccc(CO)cc1 result_number=1.17
structure_as_smiles=COC(=O)[C@@]1(Cc2ccc(F)cc2)[C@H]2c3cc(C(=O)N(C)C)n(CCc4ccc(OC)c(Br)c4)c3C[C@H]2CN1C(=O)c1ccccc1 result_number=0.902

**Q:** Reported composite z-score for CCOC(=O)C[C@H]1[C@H](OC(=O)c2ccc(C(=O)c3ccccc3)cc2)[C@@H](NC(=O)CC(C)C)c2cc(OCCCO)ccc2N1C(=O)c1ccccc1 : what is it?
**A:** 1.11

**Q:** Look at this compound and give its reported composite z-score. O=C(c1ccccc1)N1C(=O)[C@]2(Cc3ccccc31)N=C(c1ccc(OCCCO)cc1)O[C@@H]2c1ccccc1
**A:** 1.23

**Q:** Look at this compound and give its reported composite z-score. COc1cccc(C)c1NC(=O)O[C@H]1[C@H](OC(=O)Nc2ccccc2-c2ccccc2)[C@H](OC(=O)Nc2ccccc2-c2ccccc2)[C@@H](OC)O[C@@H]1CO
**A:** 1.22
